The measured values listed here are drawn from the supplement of paper PMC10724198.

System: Saccharomyces cerevisiae;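 also: PSI is a weighted mean of sequencing reads over stability bins, variants kept only with over 10 reads, mCherry proximal and sfGFP distal, peptide attached via GGGS linker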
Assay: protein stability index of tFT-peptide fusion (C-terminal peptide) (PSI (0-1 scale)); higher = more stable (slower turnover)
Assay conditions: genetic background: wild type; temperature: 30 C
Reported endpoint: protein stability index
Number, no unit, nothing else.

[[record]]
record_sequence = "ICRGGLWGVCVG"
recorded_value = 0.581

[[record]]
record_sequence = "GLMGWGLFCGFG"
recorded_value = 0.776


Kindly note the recorded protein stability index for RFLFYSFPIHTL , which is 0.128

Entry RLVGVRWEVCNL — recorded protein stability index = 0.744

Noted for PGRSATSCPFLG : its protein stability index reads 0.671

Lookup result for GHIQDSLSPDPH ; measured protein stability index: 0.613

Recorded protein stability index (sequence LPHSNWAGRVIE ): 0.703

Given item VSGSSAIFLLWC , the value recorded as its protein stability index is 0.706

EPATEGDSREHW yielded protein stability index of 0.708

sequence LGGGAGAPPSHW , protein stability index observed: 0.7
